- SYSTEM TESTED: enzyme from pea chloroplasts (ACCase) (Pisum sativum, UniProt P18823+Q41008)
- Construct: the enzyme from pea chloroplasts is relatively resistant
- Sequence (P18823 1-590): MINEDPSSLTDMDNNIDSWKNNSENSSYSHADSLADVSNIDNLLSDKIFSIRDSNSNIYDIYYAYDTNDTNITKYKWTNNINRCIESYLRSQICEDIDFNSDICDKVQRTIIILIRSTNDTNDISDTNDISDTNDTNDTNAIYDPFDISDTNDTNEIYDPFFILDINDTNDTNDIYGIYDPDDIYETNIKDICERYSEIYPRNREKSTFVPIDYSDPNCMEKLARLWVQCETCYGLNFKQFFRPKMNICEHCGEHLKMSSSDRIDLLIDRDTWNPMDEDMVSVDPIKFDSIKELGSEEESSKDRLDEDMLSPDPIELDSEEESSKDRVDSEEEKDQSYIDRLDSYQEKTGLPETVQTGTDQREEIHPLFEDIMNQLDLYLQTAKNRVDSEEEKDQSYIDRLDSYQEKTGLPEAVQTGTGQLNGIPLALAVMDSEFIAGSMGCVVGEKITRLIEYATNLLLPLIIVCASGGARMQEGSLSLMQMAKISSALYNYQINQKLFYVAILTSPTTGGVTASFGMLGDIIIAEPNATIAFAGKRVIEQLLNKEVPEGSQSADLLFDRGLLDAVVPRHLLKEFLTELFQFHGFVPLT
- Sequence (Q41008 51-875): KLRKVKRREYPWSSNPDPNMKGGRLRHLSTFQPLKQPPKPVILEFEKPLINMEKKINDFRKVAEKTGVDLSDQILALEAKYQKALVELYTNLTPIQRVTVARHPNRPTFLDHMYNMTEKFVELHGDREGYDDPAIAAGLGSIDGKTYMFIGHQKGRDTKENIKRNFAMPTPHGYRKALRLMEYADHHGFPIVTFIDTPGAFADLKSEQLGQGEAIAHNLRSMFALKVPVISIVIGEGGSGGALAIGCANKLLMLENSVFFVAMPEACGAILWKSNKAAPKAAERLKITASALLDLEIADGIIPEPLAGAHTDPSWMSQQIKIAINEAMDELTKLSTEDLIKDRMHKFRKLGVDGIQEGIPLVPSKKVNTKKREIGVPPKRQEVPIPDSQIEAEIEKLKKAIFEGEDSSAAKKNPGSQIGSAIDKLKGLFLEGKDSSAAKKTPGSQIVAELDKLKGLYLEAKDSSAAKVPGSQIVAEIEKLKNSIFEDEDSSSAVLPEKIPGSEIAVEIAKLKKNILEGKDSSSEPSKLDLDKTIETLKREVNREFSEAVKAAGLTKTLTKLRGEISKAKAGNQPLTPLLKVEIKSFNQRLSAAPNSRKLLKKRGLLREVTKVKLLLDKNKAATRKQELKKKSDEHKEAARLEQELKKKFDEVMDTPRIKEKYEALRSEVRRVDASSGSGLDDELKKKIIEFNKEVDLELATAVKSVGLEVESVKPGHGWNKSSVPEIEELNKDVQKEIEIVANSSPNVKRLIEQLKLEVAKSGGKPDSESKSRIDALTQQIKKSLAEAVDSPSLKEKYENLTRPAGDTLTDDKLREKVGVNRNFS
- EXPERIMENTAL PROTOCOL: In vitro ACCase activity assay, pea chloroplast enzyme
- DETAILS: read-out: 50% inhibition of ACCase activity
MEASURED PARAMETER: IC50

Input line: Sample CC(Oc1ccc(Oc2ncc(C(F)(F)F)cc2Cl)cc1)C(=O)O (stereo not shown) [haloxyfop] — what was its IC50?
Output line: > 50 µM

Source listed as patent US6306636A.
